Some compounds, each annotated with its measured relative viability.
System: 201T
assay details: relative viability (nuclei count vs DMSO), 5 days (fraction); higher = more cells survive
condition info: first compound 0.1581 µM

# compound, relative viability
measured = [
    ("CC1(C)CCC(c2ccc(Cl)cc2)=C(CN2CCN(c3ccc(C(=O)NS(=O)(=O)c4ccc(N[C@H](CCN5CCOCC5)CSc5ccccc5)c(S(=O)(=O)C(F)(F)F)c4)cc3)CC2)C1 [Navitoclax] + CS(=O)(=O)N1CCN(Cc2cc3nc(-c4cccc5[nH]ncc45)nc(N4CCOCC4)c3s2)CC1 [Pictilisib] (partner 1 µM)", 0.65),
    ("CC1(C)CCC(c2ccc(Cl)cc2)=C(CN2CCN(c3ccc(C(=O)NS(=O)(=O)c4ccc(N[C@H](CCN5CCOCC5)CSc5ccccc5)c(S(=O)(=O)C(F)(F)F)c4)cc3)CC2)C1 [Navitoclax] + CS(=O)(=O)CCNCc1ccc(-c2ccc3ncnc(Nc4ccc(OCc5cccc(F)c5)c(Cl)c4)c3c2)o1 [Lapatinib] (partner 2 µM)", 1.03),
    ("CC1(C)CCC(c2ccc(Cl)cc2)=C(CN2CCN(c3ccc(C(=O)NS(=O)(=O)c4ccc(N[C@H](CCN5CCOCC5)CSc5ccccc5)c(S(=O)(=O)C(F)(F)F)c4)cc3)CC2)C1 [Navitoclax] + Cc1nc(NC(=O)N2CCC[C@H]2C(N)=O)sc1-c1ccnc(C(C)(C)C(F)(F)F)c1 [Alpelisib] (partner 2 µM)", 1),
    ("CC1(C)CCC(c2ccc(Cl)cc2)=C(CN2CCN(c3ccc(C(=O)NS(=O)(=O)c4ccc(N[C@H](CCN5CCOCC5)CSc5ccccc5)c(S(=O)(=O)C(F)(F)F)c4)cc3)CC2)C1 [Navitoclax] + CCNC(=O)c1noc(-c2cc(C(C)C)c(O)cc2O)c1-c1ccc(CN2CCOCC2)cc1 [Luminespib] (partner 0.01 µM)", 1.03),
]

###

Some compounds, each annotated with its measured relative viability.
Tested on: NCI-H1437
assay details: relative viability (nuclei count vs DMSO), 5 days (fraction); higher = more cells survive
condition info: first compound 0.04 µM

# compound, study target, relative viability
records = [
    ("O=C(O)c1ccc(-c2c[nH]c3ncc(-c4ccccc4)cc23)cc1C1CCCC1 + CC1(C)CCC(c2ccc(Cl)cc2)=C(CN2CCN(c3ccc(C(=O)NS(=O)(=O)c4ccc(N[C@H](CCN5CCOCC5)CSc5ccccc5)c(S(=O)(=O)C(F)(F)F)c4)cc3)CC2)C1 [Navitoclax] (partner 0.5 µM)", "NCI-H1437", 1.03),
    ("O=C(O)c1ccc(-c2c[nH]c3ncc(-c4ccccc4)cc23)cc1C1CCCC1 + Nc1nc2[nH]cc(CCc3ccc(C(=O)N[C@@H](CCC(=O)O)C(=O)O)cc3)c2c(=O)[nH]1 [Pemetrexed] (partner 0.2 µM)", "NCI-H1437", 0.338),
    ("O=C(O)c1ccc(-c2c[nH]c3ncc(-c4ccccc4)cc23)cc1C1CCCC1 + N=C(N)NC(=N)NCCc1ccccc1 [Phenformin] (partner 250 µM)", "NCI-H1437", 0.295),
]

###

Tested on: UMC-11
assay details: relative viability (nuclei count vs DMSO), 5 days (fraction); higher = more cells survive
condition info: first compound 0.5 µM
Yes if relative viability is below 0.5. No if not; exact matches included in No.

# compound, category label
measured = [
    ("CC1(C)CCC(c2ccc(Cl)cc2)=C(CN2CCN(c3ccc(C(=O)NS(=O)(=O)c4ccc(N[C@H](CCN5CCOCC5)CSc5ccccc5)c(S(=O)(=O)C(F)(F)F)c4)cc3)CC2)C1 [Navitoclax] + Cc1nc(Nc2ncc(C(=O)Nc3c(C)cccc3Cl)s2)cc(N2CCN(CCO)CC2)n1 [Dasatinib] (partner 0.075 µM)", "Yes"),
    ("CC1(C)CCC(c2ccc(Cl)cc2)=C(CN2CCN(c3ccc(C(=O)NS(=O)(=O)c4ccc(N[C@H](CCN5CCOCC5)CSc5ccccc5)c(S(=O)(=O)C(F)(F)F)c4)cc3)CC2)C1 [Navitoclax] + CCNC(=O)c1noc(-c2cc(C(C)C)c(O)cc2O)c1-c1ccc(CN2CCOCC2)cc1 [Luminespib] (partner 0.01 µM)", "No"),
    ("CC1(C)CCC(c2ccc(Cl)cc2)=C(CN2CCN(c3ccc(C(=O)NS(=O)(=O)c4ccc(N[C@H](CCN5CCOCC5)CSc5ccccc5)c(S(=O)(=O)C(F)(F)F)c4)cc3)CC2)C1 [Navitoclax] + Nc1ncn([C@H]2C[C@H](O)[C@@H](CO)O2)c(=O)n1 [Decitabine] (partner 2 µM)", "No"),
    ("CC1(C)CCC(c2ccc(Cl)cc2)=C(CN2CCN(c3ccc(C(=O)NS(=O)(=O)c4ccc(N[C@H](CCN5CCOCC5)CSc5ccccc5)c(S(=O)(=O)C(F)(F)F)c4)cc3)CC2)C1 [Navitoclax] + CC(=O)Nc1cccc(-n2c(=O)n(C3CC3)c(=O)c3c(Nc4ccc(I)cc4F)n(C)c(=O)c(C)c32)c1 [Trametinib] (partner 0.02 µM)", "Yes"),
    ("CC1(C)CCC(c2ccc(Cl)cc2)=C(CN2CCN(c3ccc(C(=O)NS(=O)(=O)c4ccc(N[C@H](CCN5CCOCC5)CSc5ccccc5)c(S(=O)(=O)C(F)(F)F)c4)cc3)CC2)C1 [Navitoclax] + O=C(CCCCCCC(=O)Nc1ccccc1)NO [Vorinostat] (partner 1 µM)", "Yes"),
    ("CC1(C)CCC(c2ccc(Cl)cc2)=C(CN2CCN(c3ccc(C(=O)NS(=O)(=O)c4ccc(N[C@H](CCN5CCOCC5)CSc5ccccc5)c(S(=O)(=O)C(F)(F)F)c4)cc3)CC2)C1 [Navitoclax] + CS(=O)(=O)N1CCN(Cc2cc3nc(-c4cccc5[nH]ncc45)nc(N4CCOCC4)c3s2)CC1 [Pictilisib] (partner 1 µM)", "No"),
]
